Data provenance: PubChem BioAssay (NCI)

System: A498 renal
Test: NCI tumour cell line growth inhibition, 48 h
# if value of TGI reaches 30 µM, tag met; if it stays below, tag not met

molecule	label.class
Cc1cc(-c2nc3cccc(F)c3s2)ccc1N	met
CCCNc1nc2ccccc2c2c1S(=O)(=O)c1ccc(Cl)cc1C2=O	not met
COC1=C2CC(C)CC(OC)C(O)C(C)/C=C(\C)C(OC(N)=O)C(OC)/C=C\C=C(/C)C(=O)NC(=C(/C=N/N3CCCCC3)C1=O)C2=O (centres undefined)	met
Cc1cccc2c(N)c3ccccc3nc12	not met
S=c1[nH]nc(NNc2ccccc2)n1Nc1ccccc1	met
COc1ccc(-c2nn(-c3cccc(NC(=O)c4ccc(N5CCOCC5)c(C(F)(F)F)c4)c3)cc2-c2ccncc2)cc1Cl	not met
CC1(C)[C@H]2Cc3cc(-c4cc5c(cn4)[C@@H]4C[C@H]([C@@H]5[C@@H]5c6cc(-c7cc8c(cn7)[C@@H]7C[C@H](C8)C7(C)C)ncc6[C@@H]6C[C@H]5C6(C)C)C4(C)C)ncc3[C@@H]1C2	met
O=C1NCCS(=O)(=O)/C1=C\C=C\c1cccc(C(F)(F)F)c1	not met
Cc1ccc(NC(=O)C(=O)Cc2cc[n+]([O-])cc2)cc1	met

----------
TGI values for the molecules below.
System: HL-60(TB) leukemia
Assay: NCI tumour cell line growth inhibition, 48 h
experimental.readout: TGI

molecule	experimental.readout	result
Nc1n[nH]c(CCc2nc(N)n[nH]2)n1	TGI	> 100 µM
CN(C)C(=S)/N=c1\ss/c(=N\S(=O)(=O)c2ccccc2)n1N(C)C	TGI	> 100 µM
CC[C@@H]1/C=C/C=C/C[C@H](C)[C@@H](O)[C@](C)(O)C(=O)[C@H](C)[C@@H](O)[C@H](C)C(=O)[C@H](C)[C@@H](O)[C@H](C)/C=C/C(=O)O[C@H]2[C@@H](C)[C@@H](CC1)O[C@@]1(CC[C@@H](C)[C@@H](CC(C)O)O1)[C@@H]2C (stereo partly specified)	TGI	4.25 µM
COc1ccc(C(=O)Nc2ccc3oc(-c4ccccc4)nc3c2)cc1	TGI	> 100 µM
C=CS(=O)(=O)CCN1CC1	TGI	> 10 µM
CN(C)CCN(C(=Nc1ccccc1)N1CCCC1)c1ccccc1	TGI	> 100 µM
O=C(NO)c1ccc(O)c(O)c1	TGI	56 µM
COc1ccc(Nc2cc(C)nc(N3CCN(c4ccnc5cc(Cl)ccc45)CC3)n2)cc1	TGI	12.8 µM
CC12Oc3ccc4ccccc4c3CC1Cc1c(ccc3ccccc13)O2 (stereo unspecified)	TGI	> 100 µM
CC(Br)C(=O)Nc1ccc(C(=O)O)c(O)c1 (stereo unspecified)	TGI	> 100 µM
CC1=NN(C(=O)CC(=O)Nc2cccc(Cl)c2)C(=O)C1N=Nc1ccc(C(=O)O)cc1 (stereo unspecified)	TGI	> 100 µM
Cc1cccc(C(C)(C)C)c1NC(=O)CC1Sc2ccccc2NC1=O (stereo unspecified)	TGI	89.9 µM
CC1=C(/C=C/C(C)=C/C=C/C(C)=C/CO)C(C)(C)CCC1	TGI	45.3 µM
O=C1c2ccccc2C(=O)c2oc(Br)cc21	TGI	1.17 µM
c1ccc(CC2(c3cc4ccccc4[nH]3)OCCO2)nc1	TGI	> 100 µM
Cc1ncc([N+](=O)[O-])n1CCNC(=O)Cn1c([N+](=O)[O-])cnc1C	TGI	> 100 µM
C[C@]12CC[C@H](O)CC1=CC[C@@H]1C2CC[C@]2(C)Nc3c(cnn3-c3ccc(F)cc3)CC12 (stereo partly specified)	TGI	> 100 µM
CC1=C(C(=O)OC(C)C)C(c2ccccc2C(F)(F)F)C(C(=O)OC(CO[N+](=O)[O-])CO[N+](=O)[O-])=C(C)N1 (stereo unspecified)	TGI	> 100 µM
CCCCNC(=S)/N=C/c1c(O)c2ccccc2[nH]c1=O	TGI	> 10 µM
O=C(O)c1ccccc1NC(=O)C1CCCCC1	TGI	> 100 µM
O=c1[nH]c2c(c(=O)[nH]1)SSC2	TGI	32.6 µM
CNC(=O)OCC1C2=C(C(=O)C(C)=C(N)C2=O)N2CC3C(N3C)C12OC (stereo unspecified)	TGI	21.1 µM
Cc1cc(N(CCC#N)CCC#N)ccc1C=Nc1ccc(C(=O)NN2C(=O)/C(=C/c3ccc(N(CCC#N)CCC#N)cc3)N=C2c2cc([N+](=O)[O-])ccc2Cl)cc1	TGI	> 100 µM
COc1cc(C(=O)Oc2c(C#N)sc3c2c(=O)n(-c2ccccc2)c(=S)n3-c2ccccc2)cc(OC)c1OC	TGI	41.3 µM
CCOC(=O)C1=C(Nc2ccc(Cl)c(Cl)c2)OC/C1=N\NS(=O)(=O)c1ccc(C)cc1	TGI	> 100 µM
CCN(CC)CCOc1ccc(C(=O)/C=C\c2ccc(Cl)cc2Cl)cc1	TGI	6.25 µM
O=C1OC(CN2CCOCC2)CN1/N=C/c1ccc([N+](=O)[O-])o1 (stereo unspecified)	TGI	> 100 µM
C=C(Cl)Cc1c(O)c2c(c(O)c1CC(=C)Cl)C(=O)c1ccccc1C2=O	TGI	> 100 µM
COC(=O)C1=CC2OC1(C)CCC2=O (stereo unspecified)	TGI	80.4 µM
FC1=C2CCCCCC2SC1(F)F (stereo unspecified)	TGI	33.9 µM
COP(=O)(OC)/C(=C\c1cn(C(c2ccccc2)(c2ccccc2)c2ccccc2)cn1)NC(C)=O	TGI	> 100 µM
COc1ccc(N2C(=O)CC(c3c[nH]c4ncccc34)C2=O)cc1 (stereo unspecified)	TGI	> 37.4 µM
NCc1cc(O)c(O)c(O)c1	TGI	> 100 µM
Cc1ccc(S(=O)(=O)c2c(N)n(CCN(C)C)c3nc4ccccc4nc23)cc1	TGI	> 100 µM
CC(=O)NNc1nc(C)c(C(=O)NNC(=O)C(=O)Nc2c(C)cccc2C(C)(C)C)s1	TGI	> 100 µM
O=C(Nc1ccc(Cl)c(Cl)c1)OCCN1c2ccccc2Sc2ccccc21	TGI	> 10 µM
CN1C(=O)C2C=C3CCCCC3=CC2N(C)C1=O (stereo unspecified)	TGI	> 100 µM
O=C(CC1C(=O)c2ccccc2C1=C1C(=O)c2ccccc2C1=O)c1ccccc1 (stereo unspecified)	TGI	> 100 µM
O=C(O)/C=C/C(=O)N1C/C(=C\c2ccccc2)C(=O)/C(=C/c2ccccc2)C1	TGI	26.6 µM
COc1cccc(-c2nc(-c3cnccn3)n(COCCO)n2)c1	TGI	> 100 µM
C=CCN1CN(c2ccccc2)C2(CCN(CCCC3(c4ccc(F)cc4)OCCO3)CC2)C1=O	TGI	29 µM
